- Test system: BT-549 (Breast Carcinoma)
- procedure summary: combination Emax (second highest fraction inhibited in the dose matrix, 72 h); higher = more inhibition; extreme values may be limits of the assay
quantity: combination Emax
Number only, no unit.

Cc1cc2ncnn2cc1Nc1ncc2c(n1)n(C1CCOCC1)c(=O)n2C [AZD7648] + C[C@@H]1COCCN1C2=NC(=NC(=C2)C3(CC3)[S@](=N)(=O)C)C4=C5C=CNC5=NC=C4 [AZD6738] (first compound max 10 µM, 7x7, partner max 10 µM): 0.441

Consider the record given below.
Consider CCc1c2c(nc3ccc(O)cc13)-c1cc3c(c(=O)n1C2)COC(=O)[C@]3(O)CC [SN-38] + O=C(c1cc(Cc2n[nH]c(=O)c3ccccc23)ccc1F)N1CCN(C(=O)C2CC2)CC1 [Olaparib] (first compound max 0.3 µM, 7x7, partner max 10 µM) . Its measured combination Emax is 0.636

These data points were gathered from the supplement of paper PMC11061612.
